A collection of compounds and their measured growth
System: MCF7 breast
Assay: NCI-60 one-dose screen, 48 h (100 = growth as untreated, 0 = no growth, -100 = all killed)
Details: 10 µM unless noted
Compounds without any hit were thinned out: in the full panel of roughly 83,000, 20% have a hit. Activity calls are given as the source filed them. Rule for the calls: active = growth percent below 10; inactive = the rest.

[
  {
    "Compound": "O=C(c1ccccc1)c1ccc(N2C(=O)C3C4c5ccccc5C(/C=C/C(=O)c5ccccn5)(c5ccccc54)C3C2=O)cc1 (centres undefined)",
    "Measurement Target": "MCF7 breast",
    "growth": "19% (inactive)"
  },
  {
    "Compound": "COc1cc2oc(-c3cccc(C(=O)Nc4ccc(C)cc4)c3)cc(=O)c2c(OC)c1OC",
    "Measurement Target": "MCF7 breast",
    "growth": "24.5% (inactive)"
  },
  {
    "Compound": "COc1ccc(-c2nnc(-c3ccc4c(c3)nc(-c3ccccc3)n4C3CCCCC3)o2)cc1",
    "Measurement Target": "MCF7 breast",
    "growth": "33.2% (inactive)"
  }
]

get_value(item= COc1ccc2cc(-c3ccc(C(=O)NN)c(C)n3)ccc2c1 , readout=growth) returns 90.4% (inactive)

get_value(item= COc1cc2cc(Oc3ccc(NC(=O)Nc4cc(C(F)(F)F)cc(C(F)(F)F)c4)cc3)c(C)nc2cc1OCCN1CCCCC1 , readout=growth) returns -84.8% (active)

get_value(item= COc1ccc(Cn2cnc3cc(C(=O)Nc4cccc5ccccc45)ccc32)c(OC)c1 , readout=growth) returns 11.8% [30 µM] (inactive)

get_value(item= Nc1c(C(=O)c2ccccc2)nnc2ncnn12 , readout=growth) returns 97.2% (inactive)

get_value(item= CCc1cc(Cc2cc(CC)cc(C(C)(C)C)c2O)c(O)c(C(C)(C)C)c1 , readout=growth) returns 11.2% (inactive)

get_value(item= Cc1nc(-c2ccccc2)cc2c(O)c(C(=O)N/N=C/c3ccc(N(C)C)cc3)[nH]c(=O)c12 , readout=growth) returns 64.1% (inactive)

get_value(item= COC(=O)CCCNC(=O)C(=O)c1c(O)c(O)c(C(C)C)c2cc(C)c(-c3c(C)cc4c(C(C)C)c(O)c(O)c(C(=O)C(=O)NCCCC(=O)OC)c4c3O)c(O)c12 , readout=growth) returns 10.9% (inactive)

get_value(item= Cc1cnc(Nc2ccc(N3CCN(C)CC3)cc2)nc1Nc1ccc(Cl)c(NS(=O)(=O)C(C)(C)C)c1 , readout=growth) returns 5.84% (active)

get_value(item= C=C(C)C1CCC(=C)C2CCC3(C)OC12/C=C(/COC(C)=O)CCC3O (centres undefined) , readout=growth) returns 96.8% (inactive)

get_value(item= CCOC(=O)C(=CNc1ccccc1[N+](=O)[O-])C(=O)OCC , readout=growth) returns 92.9% (inactive)

get_value(item= O=C(CCl)N1c2cccc3cccc(c23)N(C(=O)CCl)C1c1cn(-c2ccccc2)nc1-c1cccc([N+](=O)[O-])c1 , readout=growth) returns 51.6% (inactive)

get_value(item= CN(C)c1ccc2cc(-c3ccccc3F)c(N)nc2c1 , readout=growth) returns 27% (inactive)

get_value(item= COc1ccc(C2CC(c3cnccn3)=NN2)cc1OC (centres undefined) , readout=growth) returns 92.8% (inactive)

get_value(item= CCNCCNc1cc(-c2cccc(C(F)(F)F)c2)c(C#N)c2nc3ccccc3n12 , readout=growth) returns -70% (active)

get_value(item= CCNCCNc1cc(-c2ccc(C(F)(F)F)cc2)c(C#N)c2nc3cc(Cl)c(Cl)cc3n12 , readout=growth) returns -70.6% (active)

get_value(item= COc1ccc(/C(C)=N/NS(=O)(=O)c2ccc(C)cc2)cc1OC , readout=growth) returns 102% (inactive)

get_value(item= CSc1ccc(Cl)c(C(=O)Nc2sccc2C(N)=O)c1 , readout=growth) returns 64.8% (inactive)

get_value(item= O=S(=O)(Cc1ccccc1)c1nc2ccccc2s1 , readout=growth) returns 30.5% (inactive)

Attribution: PubChem BioAssay (NCI)
